target: Bacillus stearothermophilus lactate dehydrogenase loop exchange mutant SL2 (short loop) (Geobacillus stearothermophilus, UniProt P00344, A222G/A223G/C81T, form not given); construct: purified; +/- FBP; test: Steady-state kinetics, NADH-dependent reduction of 2-oxo acids (A340); assay type: biochemical; conditions: +FBP (5 mM), 25° C., pH 6
Sequence (P00344 whole entry C81T/A222G/A223G, form open): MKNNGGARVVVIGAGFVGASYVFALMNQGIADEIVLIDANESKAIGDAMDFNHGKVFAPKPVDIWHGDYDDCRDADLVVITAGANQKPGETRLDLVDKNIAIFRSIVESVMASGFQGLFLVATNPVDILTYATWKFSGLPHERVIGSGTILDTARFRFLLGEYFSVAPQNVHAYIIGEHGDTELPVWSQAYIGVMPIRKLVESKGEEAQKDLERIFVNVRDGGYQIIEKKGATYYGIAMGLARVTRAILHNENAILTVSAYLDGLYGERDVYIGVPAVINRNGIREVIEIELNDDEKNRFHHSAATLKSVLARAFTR
Recorded Km values for a group of compounds are listed next.
# output: numeric value plus its unit

Field: example entries. Status: answers known.
Value lookup for Km; key = CC(=O)C(=O)O [PYRUVATE, pyruvate] 0.065 mM

Lookup O=C(O)C(=O)CCc1ccccc1 [2-OXO-4-PHENYL BUTANOATE, 2-oxo-4-phenyl butanoic acid] 4 mM

Lookup CCCCC(=O)C(=O)O [KETO CAPROATE, α-ketocaproate] 25 mM

---
Value lookup for Km; key = CC(C)CC(=O)C(=O)O [KETOISO CAPROATE, α-ketoisocaproate] 25 mM

* * *

molecular target: Bacillus stearothermophilus lactate dehydrogenase loop exchange mutant SL1 (short loop) (Geobacillus stearothermophilus, UniProt P00344, A222G/A223G/C81T, form not given); construct: purified; +/- FBP; assay: Steady-state kinetics, NADH-dependent reduction of 2-oxo acids (A340); assay type: biochemical; details: +FBP (5 mM), 25° C., pH 6
Sequence (P00344 whole entry C81T/A222G/A223G, form open): as above
Recorded Km values for a group of compounds are listed next.
# output: bare number, implied unit mM

Field: example entries. Status: answers known.
Value lookup for Km; key = O=C(O)C(=O)CCc1ccccc1 [2-OXO-4-PHENYL BUTANOATE, 2-oxo-4-phenyl butanoic acid] 4

Lookup CC(=O)C(=O)O [PYRUVATE, pyruvate] 0.08

Lookup CC(C)CC(=O)C(=O)O [KETOISO CAPROATE, α-ketoisocaproate] 20

// below: Km requested for another compound
Value lookup for Km; key = CCCCC(=O)C(=O)O [KETO CAPROATE, α-ketocaproate] 16

* * *

Recorded Km values for a group of compounds are listed next.
molecular target: Bacillus stearothermophilus lactate dehydrogenase loop exchange mutant SL2 (short loop) (Geobacillus stearothermophilus, UniProt P00344, A222G/A223G/C81T, form not given); construct: purified; +/- FBP; experiment: Steady-state kinetics, NADH-dependent reduction of 2-oxo acids (A340); assay type: biochemical; settings: -FBP, 25° C., pH 6
# output: bare number, implied unit mM

Value lookup for Km; key = O=C(O)C(=O)CCc1ccccc1 [2-OXO-4-PHENYL BUTANOATE, 2-oxo-4-phenyl butanoic acid] 4

Lookup CC(C)CC(=O)C(=O)O [KETOISO CAPROATE, α-ketoisocaproate] 30

Lookup CCCCC(=O)C(=O)O [KETO CAPROATE, α-ketocaproate] 60

// below: Km requested for another compound
Value lookup for Km; key = CC(=O)C(=O)O [PYRUVATE, pyruvate] 0.5
